All figures here come from patent US20190352420A1.

Target: T1, cell-bound CD73 (human, UniProt P21589 27-549)
T1 sequence (looked up): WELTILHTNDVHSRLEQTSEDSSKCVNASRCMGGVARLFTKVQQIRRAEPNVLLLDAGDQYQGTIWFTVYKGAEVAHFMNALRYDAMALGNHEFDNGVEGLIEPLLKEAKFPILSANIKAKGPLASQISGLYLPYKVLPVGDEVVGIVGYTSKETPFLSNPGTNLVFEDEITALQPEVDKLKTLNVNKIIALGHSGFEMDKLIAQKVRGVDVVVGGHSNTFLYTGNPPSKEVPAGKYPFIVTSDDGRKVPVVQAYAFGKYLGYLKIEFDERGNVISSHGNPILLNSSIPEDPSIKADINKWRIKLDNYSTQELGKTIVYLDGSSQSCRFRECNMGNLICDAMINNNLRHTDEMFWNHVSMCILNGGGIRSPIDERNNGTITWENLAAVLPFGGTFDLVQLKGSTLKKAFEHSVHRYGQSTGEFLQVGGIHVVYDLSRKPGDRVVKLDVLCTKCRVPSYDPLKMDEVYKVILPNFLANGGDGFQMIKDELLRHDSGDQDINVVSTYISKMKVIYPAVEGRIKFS
Assay: cell-based or functional assay
IFNγ release [fold change over control], Donor B, 1 nM antibody reference
I only need the number, in fold, no unit after it.

Sample answers from the record:
- binder: "C1 (antibody, human IgG1, kappa, L234A L235A, V domains shown, Humanized monoclonal antibody; also called anti-CD73 antibody C1) VH: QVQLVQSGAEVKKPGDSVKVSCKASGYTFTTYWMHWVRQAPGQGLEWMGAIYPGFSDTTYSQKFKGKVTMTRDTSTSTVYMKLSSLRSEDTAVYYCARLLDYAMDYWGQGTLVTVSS VL: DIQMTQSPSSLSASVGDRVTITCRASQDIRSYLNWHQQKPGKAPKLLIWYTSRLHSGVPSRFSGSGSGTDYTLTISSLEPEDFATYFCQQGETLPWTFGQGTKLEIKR"
  recorded-measurement: 12
- binder: "C3 (antibody, human IgG1, kappa, L234A L235A, V domains shown, Humanized monoclonal antibody; also called anti-CD73 antibody C3) VH: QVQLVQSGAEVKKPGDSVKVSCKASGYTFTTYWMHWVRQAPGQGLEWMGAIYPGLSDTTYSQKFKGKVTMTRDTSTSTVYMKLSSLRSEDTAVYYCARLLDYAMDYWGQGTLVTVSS VL: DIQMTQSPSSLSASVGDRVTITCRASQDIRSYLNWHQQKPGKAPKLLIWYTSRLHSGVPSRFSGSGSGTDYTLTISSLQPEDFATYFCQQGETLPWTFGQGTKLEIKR"
  recorded-measurement: 7.7
- binder: "B2 (antibody, human IgG1, kappa, L234A L235A, V domains shown, Humanized monoclonal antibody; also called anti-CD73 antibody B2) VH: EVQLVESGGGLVQPGGSLRLSCAASGLTFSSYVMSWVRQAPGKGLEWVSTISSGGVSTYYPDTVKGRFTISRDNSKNTLYLQMNSLRAEDTAVYYCAKRETARATGFAYWGQGTLVTVSA VL: DIQMTQSPSSLSASVGDRVTITCKASQSVSDDVTWYQQKPGKAPKLLIYYASNRYTGVPSRFSGSGSGTDFTFTISSVQPEDIATYYCQQDYSSPWTFGGGTKLEIKR"
  recorded-measurement: 8.1
- binder: "C5 (antibody, human IgG1, kappa, L234A L235A, V domains shown, Humanized monoclonal antibody; also called anti-CD73 antibody C5) VH: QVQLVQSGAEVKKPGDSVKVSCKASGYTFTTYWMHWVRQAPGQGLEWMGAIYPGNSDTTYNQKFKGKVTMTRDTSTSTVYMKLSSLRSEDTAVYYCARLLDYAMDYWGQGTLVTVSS VL: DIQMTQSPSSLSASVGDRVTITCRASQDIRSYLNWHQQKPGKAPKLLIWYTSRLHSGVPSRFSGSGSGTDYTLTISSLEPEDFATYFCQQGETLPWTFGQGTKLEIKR"
  recorded-measurement: 11.3

Give the value of IFNγ release [fold change over control], Donor B, 1 nM antibody reported for the following: C4 (antibody, human IgG1, kappa, L234A L235A, V domains shown, Humanized monoclonal antibody; also called C04; inventive anti-CD73 antibody C4) VH: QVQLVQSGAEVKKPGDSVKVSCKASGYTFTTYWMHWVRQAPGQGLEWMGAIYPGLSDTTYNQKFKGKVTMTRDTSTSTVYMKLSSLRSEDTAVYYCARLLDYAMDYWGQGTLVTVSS VL: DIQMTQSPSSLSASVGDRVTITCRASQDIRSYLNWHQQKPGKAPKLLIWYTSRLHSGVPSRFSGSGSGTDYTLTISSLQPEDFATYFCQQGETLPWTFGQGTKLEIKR
8.7

Give the value of IFNγ release [fold change over control], Donor B, 1 nM antibody reported for the following: C6 (antibody, human IgG1, kappa, L234A L235A, V domains shown, Humanized monoclonal antibody; also called anti-CD73 antibody C6) VH: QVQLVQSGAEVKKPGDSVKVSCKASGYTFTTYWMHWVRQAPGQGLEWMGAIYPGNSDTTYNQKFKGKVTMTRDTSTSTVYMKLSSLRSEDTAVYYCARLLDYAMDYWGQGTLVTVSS VL: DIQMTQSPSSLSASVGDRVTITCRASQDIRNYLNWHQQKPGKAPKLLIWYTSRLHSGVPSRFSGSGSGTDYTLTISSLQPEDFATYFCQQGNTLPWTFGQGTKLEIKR
12.9

Give the value of IFNγ release [fold change over control], Donor B, 1 nM antibody reported for the following: C2 (antibody, human IgG1, kappa, L234A L235A, V domains shown, Humanized monoclonal antibody; also called anti-CD73 antibody C2) VH: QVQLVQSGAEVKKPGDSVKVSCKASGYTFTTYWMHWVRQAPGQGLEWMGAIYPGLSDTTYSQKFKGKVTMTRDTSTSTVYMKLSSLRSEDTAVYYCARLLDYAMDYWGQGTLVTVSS VL: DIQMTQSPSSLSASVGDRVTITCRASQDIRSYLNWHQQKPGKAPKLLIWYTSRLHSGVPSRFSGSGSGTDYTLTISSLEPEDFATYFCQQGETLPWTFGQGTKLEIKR
7.8
